- test_details: Mouse oral PK and tissue distribution, fasted state
- Format: in vivo
- condition_context: male, C57BL/6, mouse, lung, po, 10 mg/kg; tissue not stated
- Text: It is well established that oral absorption and subsequent tissue distribution of lipophilic drugs can be affected by an animal’s fed state. − Food intake serves as a stimulus for CM production in enterocytes, and therefore, variable fed states contribute to differences in prodrug absorption into the lymphatics. […] To evaluate the impact of fasting on drug absorption and distribution, we modified our protocol to include an overnight fast. […]
measured_parameter: Tmax

GET /values?readout=Tmax&item= CCCCCCCCCCCCCCCCOCCCOP(=O)(O)CO[C@H](C)Cn1cnc2c(N)ncnc21 [TXL, hexadecyloxypropyl (HDP)-TFV, reference compound]
4 h

GET /values?readout=Tmax&item= C[C@H](Cn1cnc2c(N)ncnc21)OCP(=O)(O)OC[C@H](COCCCCCCCCCCCCCCCC(F)(F)F)OCc1ccccc1 [21a]
1 h

###

- test_details: Metabolic stability in mouse liver microsomes
- Type: in vitro ADME
- condition_context: pH 7.4, read-out: Metabolic Stability MLM t1/2
Each entry below carries its reported half-life at 3 µM.

Past entries and their recorded results:
C[C@H](Cn1cnc2c(N)ncnc21)OCP(=O)(O)OCCCOCCCCCCCCCCCCCCCC(F)(F)F [15a]    > 2 h
C[C@H](Cn1cnc2c(N)ncnc21)OCP(=O)(O)OC[C@H](COCCCCCCCCCCCCCCCC(F)(F)F)OCc1ccccc1 [21a]    > 2 h

GET /values?readout=half-life at 3 µM&item= C[C@H](Cn1cnc2c(N)ncnc21)OCP(=O)(O)OCCCOCCCCCCCCCCCCCCCCCC(F)(F)F [15b]
1.52 h

GET /values?readout=half-life at 3 µM&item= C[C@H](Cn1cnc2c(N)ncnc21)OCP(=O)(O)OC[C@H](COCCCCCCCCCCCCCCCCCC(F)(F)F)OCc1ccccc1 [21b]
> 2 h

GET /values?readout=half-life at 3 µM&item= CCCCCCCCCCCCCCCCOCCCOP(=O)(O)CO[C@H](C)Cn1cnc2c(N)ncnc21 [TXL, hexadecyloxypropyl (HDP)-TFV, reference compound]
> 2 h

###

Each entry below carries its reported Liver Cmax.
- test_details: Mouse oral PK and tissue distribution, fed state
- Type: in vivo
- condition_context: single oral dose 10 mg/kg, fed mice

C[C@H](Cn1cnc2c(N)ncnc21)OCP(=O)(O)OC[C@H](COCCCCCCCCCCCCCCCC(F)(F)F)OCc1ccccc1 [21a]    37,600 ng/g
C[C@H](Cn1cnc2c(N)ncnc21)OCP(=O)(O)OCCCOCCCCCCCCCCCCCCCC(F)(F)F [15a]    27,000 ng/g
C[C@H](Cn1cnc2c(N)ncnc21)OCP(=O)(O)OC[C@H](COCCCCCCCCCCCCCCCCCC(F)(F)F)OCc1ccccc1 [21b]    22,000 ng/g

GET /values?readout=Liver Cmax&item= C[C@H](Cn1cnc2c(N)ncnc21)OCP(=O)(O)OCCCOCCCCCCCCCCCCCCCCCC(F)(F)F [15b]
13,400 ng/g

GET /values?readout=Liver Cmax&item= CCCCCCCCCCCCCCCCOCCCOP(=O)(O)CO[C@H](C)Cn1cnc2c(N)ncnc21 [TXL, hexadecyloxypropyl (HDP)-TFV, reference compound]
2,660 ng/g

###

- test_details: Mouse oral PK and tissue distribution, fed state
- Assay type: in vivo
- condition_context: male, C57BL/6, mouse, in vivo; single oral dose 10 mg/kg, fed mice; read-out: Plasma Cmax
measured_parameter: Cmax (ng/mL)
Answer format: numeric, ng/mL implied, no suffix.

CCCCCCCCCCCCCCCCOCCCOP(=O)(O)CO[C@H](C)Cn1cnc2c(N)ncnc21 [TXL, hexadecyloxypropyl (HDP)-TFV, reference compound]    29.1

GET /values?readout=Cmax&item= C[C@H](Cn1cnc2c(N)ncnc21)OCP(=O)(O)OCCCOCCCCCCCCCCCCCCCC(F)(F)F [15a]
127

Sourced from paper PMC12441861
